target system: T1, human 5T4-His protein (human, UniProt Q13641 32-355)
T1 construct: also called recombinant 5T4 protein (human 5T4-his tag); human 5T4 protein; not shown: His tag
T1 sequence (looked up): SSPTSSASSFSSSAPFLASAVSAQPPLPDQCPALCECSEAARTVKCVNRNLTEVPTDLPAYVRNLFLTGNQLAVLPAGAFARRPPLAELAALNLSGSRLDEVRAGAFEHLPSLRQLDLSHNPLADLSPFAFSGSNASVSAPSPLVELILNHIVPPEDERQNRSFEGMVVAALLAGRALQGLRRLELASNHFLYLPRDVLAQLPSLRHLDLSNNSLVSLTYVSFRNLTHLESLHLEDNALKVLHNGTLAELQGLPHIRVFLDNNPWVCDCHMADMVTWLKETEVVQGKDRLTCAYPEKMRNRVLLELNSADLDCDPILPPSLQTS
method: SPR Biacore, Protein A capture
Protocol: The binding of the 14G12 humanized antibodies to recombinant 5T4 protein (human 5T4-his tag) was tested with Biacore using a capture method. The mAbs were captured using Protein A chip. Serial dilution of human 5T4-his tag protein was injected over captured antibody for 120 s-180 s at a flow rate of 30 μl/min. The antigen was allowed to dissociate for 360 s-1000 s. All the experiments were carried out on a Biacore T200. Data analysis was carried out using the Biacore T200 evaluation software.
metric: kon (M⁻¹ s⁻¹)
Give bare numbers, in M⁻¹ s⁻¹.

Example results:
{"binder": "Hu14G12-47 (antibody, V domains shown, humanized) VH: QVQLVQSGAEVKKPGASVKVSCKASGYAFSSSWMNWVRQAPGQGLEWMGRIYREDGHTNYNGKFKGRVTMTADKSTTTAYMELRSLRSDDTAVYYCANGGAMDYWGQGTLVTVSS VL: DIQMTQSPSTLSASVGDRVTITCRASQDISNYLNWYQQKPGKAPKLLIYYTSRLHSGVPSRFSGSGSGTEYTLTISSLQPDDIATYFCQQDNTLPWTFGGGTKVEIK", "u": "M⁻¹ s⁻¹", "kon": 438000}
{"binder": "Hu14G12-2 (antibody, V domains shown, humanized) VH: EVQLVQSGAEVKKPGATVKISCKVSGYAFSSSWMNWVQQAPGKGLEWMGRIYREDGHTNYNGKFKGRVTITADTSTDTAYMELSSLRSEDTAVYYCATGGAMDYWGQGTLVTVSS VL: DIQMTQSPSSLSASVGDRVTITCRASQDISNYLNWYQQKPGKAPKLLIYYTSRLHSGVPSRFSGSGSGTDYTFTISSLQPEDIATYFCQQDNTLPWTFGGGTKLEIK", "u": "M⁻¹ s⁻¹", "kon": 203000}
{"binder": "Hu14G12-13 (antibody, V domains shown, humanized) VH: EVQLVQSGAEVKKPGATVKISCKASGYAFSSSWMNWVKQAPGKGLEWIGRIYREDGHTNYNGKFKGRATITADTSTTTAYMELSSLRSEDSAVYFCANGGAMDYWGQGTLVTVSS VL: DIQMTQSPSSLSASVGDRVTITCRASQDISNYLNWYQQKPGKAPKLLIYYTSRLHSGVPSRFSGSGSGTDFTFTISSLQPEDIATYYCQQDNTLPWTFGGGTKLEIK", "u": "M⁻¹ s⁻¹", "kon": 198000}
{"binder": "Hu14G12-32 (antibody, V domains shown, humanized) VH: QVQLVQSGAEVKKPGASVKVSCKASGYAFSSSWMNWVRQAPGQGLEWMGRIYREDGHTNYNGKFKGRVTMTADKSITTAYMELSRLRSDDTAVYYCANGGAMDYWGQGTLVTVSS VL: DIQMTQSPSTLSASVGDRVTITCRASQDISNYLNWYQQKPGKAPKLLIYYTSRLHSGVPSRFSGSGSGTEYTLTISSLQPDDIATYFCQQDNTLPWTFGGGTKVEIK", "u": "M⁻¹ s⁻¹", "kon": 355000}
{"binder": "Hu14G12-7 (antibody, V domains shown, humanized) VH: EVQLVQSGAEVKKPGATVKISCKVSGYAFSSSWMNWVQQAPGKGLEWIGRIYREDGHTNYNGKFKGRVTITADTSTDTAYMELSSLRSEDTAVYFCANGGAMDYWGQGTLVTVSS VL: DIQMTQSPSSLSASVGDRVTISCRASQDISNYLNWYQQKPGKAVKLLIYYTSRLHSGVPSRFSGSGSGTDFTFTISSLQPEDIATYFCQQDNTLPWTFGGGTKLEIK", "u": "M⁻¹ s⁻¹", "kon": 336000}

Field: kon. Fill in for each record below.
1. Hu14G12-18 (antibody, V domains shown, humanized) VH: QVQLVQSGAEVKKPGSSVKVSCKASGGTFSSSWMNWVKQAPGQGLEWIGRIYREDGHTNYNGKFKGKATLTADKSTSTAYMELSSLRSEDTAVYFCANGGAMDYWGQGTTVTVSS VL: DIQMTQSPSSLSASVGDRVTITCRASQDISNYLNWYQQKPGKVPKLLIYYTSRLHSGVPSRFSGSGSGTDYTLTISSLQPEDVATYFCQQDNTLPWTFGGGTKLEIK
2. Hu14G12-15 (antibody, V domains shown, humanized) VH: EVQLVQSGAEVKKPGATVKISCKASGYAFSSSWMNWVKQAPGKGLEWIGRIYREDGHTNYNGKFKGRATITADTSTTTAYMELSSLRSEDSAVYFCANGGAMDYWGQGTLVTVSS VL: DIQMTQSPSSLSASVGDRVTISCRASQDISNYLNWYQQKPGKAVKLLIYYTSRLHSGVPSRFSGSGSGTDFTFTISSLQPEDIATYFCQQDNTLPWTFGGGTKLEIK
3. Hu14G12-1 (antibody, V domains shown, humanized) VH: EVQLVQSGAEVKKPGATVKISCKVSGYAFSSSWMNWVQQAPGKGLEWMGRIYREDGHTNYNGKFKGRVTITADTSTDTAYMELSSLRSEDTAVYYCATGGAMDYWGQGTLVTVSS VL: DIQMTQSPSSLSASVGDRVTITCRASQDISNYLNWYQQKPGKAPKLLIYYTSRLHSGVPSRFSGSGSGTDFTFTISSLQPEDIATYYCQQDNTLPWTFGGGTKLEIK
4. Hu14G12-29 (antibody, V domains shown, humanized) VH: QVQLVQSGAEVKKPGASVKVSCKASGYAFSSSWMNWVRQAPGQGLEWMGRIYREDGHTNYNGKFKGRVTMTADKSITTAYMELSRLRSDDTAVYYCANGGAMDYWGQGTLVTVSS VL: DIQMTQSPSSLSASVGDRVTITCRASQDISNYLNWYQQKPGKAPKLLIYYTSRLHSGVPSRFSGSGSGTDYTLTISSLQPEDIATYFCQQDNTLPWTFGGGTKVEIK
5. Hu14G12-3 (antibody, V domains shown, humanized) VH: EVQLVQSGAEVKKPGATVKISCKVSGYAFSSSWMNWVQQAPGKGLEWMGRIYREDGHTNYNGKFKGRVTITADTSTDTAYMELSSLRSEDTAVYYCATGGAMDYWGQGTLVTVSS VL: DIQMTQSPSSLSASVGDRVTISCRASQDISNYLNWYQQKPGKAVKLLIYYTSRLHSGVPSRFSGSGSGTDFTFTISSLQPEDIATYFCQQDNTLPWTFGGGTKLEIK

Completion:
392000
262000
283000
514000
200000
